Source: patent US20240368133A1

# study target: UniProtKB P30556
# Sequence (P30556 whole entry): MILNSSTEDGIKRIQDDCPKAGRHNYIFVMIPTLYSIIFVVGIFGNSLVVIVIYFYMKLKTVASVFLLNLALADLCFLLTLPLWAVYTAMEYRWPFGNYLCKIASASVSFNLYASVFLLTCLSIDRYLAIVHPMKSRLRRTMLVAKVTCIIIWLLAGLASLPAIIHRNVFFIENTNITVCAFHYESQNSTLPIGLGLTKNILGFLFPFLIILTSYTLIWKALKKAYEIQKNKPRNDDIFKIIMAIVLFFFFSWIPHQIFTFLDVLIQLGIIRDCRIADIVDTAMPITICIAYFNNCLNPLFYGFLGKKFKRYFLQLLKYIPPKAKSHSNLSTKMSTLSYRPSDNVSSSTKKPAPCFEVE
# protocol description: Counterscreen radioligand binding assay, displacement of 125I-[Sar1, Ile8]-Angiotensin II, hAT1R WT
# conditions: 125I-[Sar1, Ile8]-Ang II, compound at 10 μM, semi-quantitative score, read-out: % Displaced radioligand at 10 μM
metric: inhibition at 10 µM

Below: 3 molecules and their reported inhibition at 10 µM.
CCNc1ccc(-c2nn[nH]n2)c(N2CCN(Cc3nc4ccccc4s3)CC2)c1 < 30%
CCCCOC(=O)NS(=O)(=O)c1ccc(C(F)(F)F)cc1N1CCN(Cc2nc3ccccc3n2C)CC1 < 30%
CCS(=O)(=O)NC(=O)c1ccccc1N1CCN(Cc2nc3ccccc3n2C)CC1 < 30%

Shift focus to the following entry.
# input Record request: inhibition at 10 µM value, item CCc1cc(C2CC2)cc(N2CCN(Cc3nc4ccccc4s3)CC2)c1-c1nn[nH]n1
# output > 50%
